target: P2X7 receptor (Homo sapiens); construct: host or cells: THP-1 cells differentiated with LPS and IFN-γ; assay: IL-1β release assay in differentiated THP-1 cells stimulated with BzATP (Example 9); type: cell-based; settings: 0.3 μM compound; differentiated THP-1 cells, BzATP 250 uM; "+" class symbols; read-out: IL-1β % Inhib. @ 0.3 μM
Sequence (Q99572 whole entry): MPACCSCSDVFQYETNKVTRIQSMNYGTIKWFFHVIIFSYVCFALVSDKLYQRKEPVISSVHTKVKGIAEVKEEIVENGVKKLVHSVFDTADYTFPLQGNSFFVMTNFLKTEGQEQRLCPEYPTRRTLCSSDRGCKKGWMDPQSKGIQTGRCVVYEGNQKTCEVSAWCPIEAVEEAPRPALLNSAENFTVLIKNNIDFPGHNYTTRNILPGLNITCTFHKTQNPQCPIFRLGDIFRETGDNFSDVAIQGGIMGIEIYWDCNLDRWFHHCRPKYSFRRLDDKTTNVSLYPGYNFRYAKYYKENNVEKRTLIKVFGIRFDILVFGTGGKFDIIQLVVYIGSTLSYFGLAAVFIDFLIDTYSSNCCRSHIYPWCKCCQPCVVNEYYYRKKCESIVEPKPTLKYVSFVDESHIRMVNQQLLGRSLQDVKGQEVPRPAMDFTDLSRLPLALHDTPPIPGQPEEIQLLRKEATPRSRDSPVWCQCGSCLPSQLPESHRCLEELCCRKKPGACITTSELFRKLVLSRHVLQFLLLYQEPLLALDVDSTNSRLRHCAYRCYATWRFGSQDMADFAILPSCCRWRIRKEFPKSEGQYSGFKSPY
measurement label: inhibition at 0.3 µM

Request: Please report the recorded inhibition at 0.3 µM for CS(=O)(=O)CCn1ccc2c(NC(=O)Cc3ccc(Cl)c(Cl)c3)cccc2c1=O .
Result: 26 to 50%

Request: Cool, now CC(=O)OCCn1ccc2c(NC(=O)Cc3ccc(C(F)(F)F)cc3C(F)(F)F)cccc2c1=O
Result: 26 to 50%

Request: // query: CC(C(N)=O)n1ccc2c(NC(=O)C3COc4cc(C(C)(C)C)ccc4O3)cccc2c1=O (stereo not shown)
Result: 0 to 25%

Request: Also need CO[C@@](C(=O)Nc1cccc2c(=O)n(CCN(C)C)ccc12)(c1ccccc1)C(F)(F)F , thanks.
Result: 0 to 25%
